system: Staphylococcus aureus; test: preservation efficacy test (PET), European Pharmacopoeia 5.1.3; assay type: cell-based; details: PET, Staphylococcus aureus (SA), 14 days after inoculation
Readout Type: number of microorganisms, 14 days
No unit in the answer, please; the number alone is enough.

What value of measured number of microorganisms, 14 days is listed for CCCCCC(O)CO (stereo not drawn) [1,2-heptanediol] ?
1

Please report the recorded number of microorganisms, 14 days for O=c1cccccc1O [Tropolone, reference compound] .
3.100

Param item = CCCCCCCCC(O)CO (stereo not drawn) [1,2-decylene glycol, reference compound] ; retrieve measured number of microorganisms, 14 days.
1

Query (compound): CC(=O)c1ccc(O)cc1 [4-Hydroxyacetophenone, reference compound] ; field requested: number of microorganisms, 14 days
1

Could you share which number of microorganisms, 14 days value was measured for CCCCCCC(O)C(C)O (stereo not drawn) [2,3-nonanediol] ?
1

What does the record list as number of microorganisms, 14 days for CCCCCCCC(O)CO (stereo not drawn) [1,2-Nonanediol] ?
1

Measured values drawn from patent US20230293407A1 for this set.
